systemName: Mitogen-activated protein kinase kinase kinase 2 (Homo sapiens) (UniProt Q9Y2U5)
assayOverview: modulators of MEK5 binding to wildtype MEKK2, primary screen, biochemical, multiplex bead flow cytometry, Alexa488-MEK5 (AID 1531)
testSettings: Alexa488-MEK5 binding to MEKK2 WT, at 10 µM, actives lie on both sides
In all, about 290,000 compounds went through this assay and about 3,300 (1.1%) were called active. The sample as a whole holds a higher share of actives than the screen did.
experimentalReadout: binding response (% of control)

## Task Reported binding response (% of control), compound O=C(CN1CCN(c2ccccn2)CC1)NC1CCCCC1 : ____
## Result 104% (inactive)

## Task One more compound: CSc1nc2ccc(S(=O)(=O)N3CCc4ccccc43)cc2s1
## Result 98% (inactive)

## Task And the next one, CN(C)CCCN(C(=O)c1ccc(S(=O)(=O)N2CCCc3ccccc32)cc1)c1nc2ccc(F)cc2s1 ?
## Result 232% (active)

## Task # repeat for CCC(C)OC(=O)C(C)Oc1ccc(-c2ccccc2)cc1 (centres undefined)
## Result 2% [inhibitor] (active)
